B1: KRT13 (parent)
chain: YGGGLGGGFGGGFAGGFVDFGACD

variants of: B1; assay: protein stability index of a GFP-peptide fusion (GPS, HEK-293T) (PSI 1-6); higher = more stable; settings: c terminus: a fixed tail appended;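 also: lentivirally expressed fusions sorted by FACS into six bins by GFP to DsRed ratio, PSI derived from sequencing read proportions per bin multiplied by bin number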
The entries below are paired with their reported protein stability index.

biopolymer.sequence: YGGGLGGGFGGGFAGGFVDMGACD
protein stability index: 1.53
--
biopolymer.sequence: YGGGLGGGFGGGFAGMFVDFGACD
protein stability index: 2.76
--
biopolymer.sequence: YGGGLGGGFGGGFAGGFVDFGVCD
protein stability index: 2.4
--
biopolymer.sequence: HGGGLGGGFGGGFAGGFVDFGACD
protein stability index: 2.9
--
biopolymer.sequence: YGGGLGGGFGGGFAGGFVDFGACW
protein stability index: 3.82
--
biopolymer.sequence: YGGGLGGGFGGYFAGGFVDFGACD
protein stability index: 3.95
--
biopolymer.sequence: YGGGLGGGFGGGFAGGFVDIGACD
protein stability index: 1.27
--
biopolymer.sequence: YGGGDGGGFGGGFAGGFVDFGACD
protein stability index: 2.04
--
biopolymer.sequence: YGNGLGGGFGGGFAGGFVDFGACD
protein stability index: 2.2
--
biopolymer.sequence: YGGGLGGGFGGGFAGGFVDFGAMD
protein stability index: 1.49
--
biopolymer.sequence: YGGGLGGGFGGGFAGGFLDFGACD
protein stability index: 1.38
--
biopolymer.sequence: YGGGLGGGFGGGFAGGFVDVGACD
protein stability index: 1.36
--
biopolymer.sequence: YGGGLNGGFGGGFAGGFVDFGACD
protein stability index: 1.65
--
biopolymer.sequence: YGGGLGGGFGGGFAGGFVDFGACI
protein stability index: 5.23
--
biopolymer.sequence: YGGGLGGGQGGGFAGGFVDFGACD
protein stability index: 2.1
--
biopolymer.sequence: YGGGLGGGFAGGFAGGFVDFGACD
protein stability index: 2.01
--
biopolymer.sequence: YGGGLGGGFGGGFAGGFVDFGAVD
protein stability index: 1.22
--
biopolymer.sequence: IGGGLGGGFGGGFAGGFVDFGACD
protein stability index: 2.54
--
biopolymer.sequence: YGGGLGGGFGGGFAGGFVRFGACD
protein stability index: 1.96
--
biopolymer.sequence: YGGGLGGGFGGGFAGGFVDFGYCD
protein stability index: 1.99
--
biopolymer.sequence: YGGGLGGGFGGGFAGGFVDFRACD
protein stability index: 2.37
--
biopolymer.sequence: YGGGLGGGFGGQFAGGFVDFGACD
protein stability index: 1.39
--
biopolymer.sequence: YGGGAGGGFGGGFAGGFVDFGACD
protein stability index: 1.64
--
biopolymer.sequence: WGGGLGGGFGGGFAGGFVDFGACD
protein stability index: 2.08
--
biopolymer.sequence: YGGGLGGGFGGGFAGGFVDFGICD
protein stability index: 1.33
--
biopolymer.sequence: YGGGLGGGFGGHFAGGFVDFGACD
protein stability index: 1.4
--
biopolymer.sequence: YGGGLGGGFGGGFAGGFVDFGAGD
protein stability index: 1.83
